Cited source: patent US5137905A

# Target: CNS cholinergic receptor
# Experiment: CNS cholinergic receptor binding, oxotremorine M ligand
# Experimental Context: tritiated oxotremorine M; read-out: CNS Cholinergic Receptor Binding Assays K1 Oxotremorine
The following compounds are shown together with reported Ki values.
Measured Attribute: Ki (nM)

> print(dat)
                                   compound  measured.attribute  value.reported
1                  CCN(CC)CC#CCN1CCN(C)C1=O                  Ki             132
2  CC(C#CCn1ccnc1)N1CCN(C)C1=O (stereo not drawn)                  Ki             120
3  COC(=O)N1CCC[C@H]1C#CCN1CCCC1 [Compound 51K]                  Ki             130
